Reported pIC50 values for the following binders.
# EXPERIMENTAL_SYSTEM: T1, recombinant human Factor VIIa (human), P08709
# T1 chain 1: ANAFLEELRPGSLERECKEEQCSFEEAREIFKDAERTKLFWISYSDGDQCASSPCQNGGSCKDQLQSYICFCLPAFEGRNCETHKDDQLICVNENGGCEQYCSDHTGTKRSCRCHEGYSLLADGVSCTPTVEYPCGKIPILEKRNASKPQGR
# T1 chain 2: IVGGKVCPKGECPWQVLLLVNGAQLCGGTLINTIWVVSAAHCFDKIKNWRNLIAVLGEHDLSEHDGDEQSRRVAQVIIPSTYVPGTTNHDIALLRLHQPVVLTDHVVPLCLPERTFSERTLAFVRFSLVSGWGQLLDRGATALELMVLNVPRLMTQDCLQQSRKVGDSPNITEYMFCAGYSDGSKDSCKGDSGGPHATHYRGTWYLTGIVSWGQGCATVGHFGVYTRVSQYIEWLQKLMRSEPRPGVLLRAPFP
# ASSAY_REMARKS: competition ELISA
# TEST_SETTINGS: modification not given
API: returns pIC50 as number; meaning -log10 of concentration in mol/L.

Illustrative cases are given below, each with its answer.
>  <BINDER>
AMCDDPRVDRWYCQFVEG [TF319]

>  <pIC50>
4.62

$$$$
>  <BINDER>
ALCRDPRVDRWYCQFVEG [TF127]

>  <pIC50>
7.55

$$$$
>  <BINDER>
ALCDDPRVDRWYCAFVEG [TF179]

>  <pIC50>
7.49

$$$$

Here is another binder to look at.
Please indicate pIC50 recorded for ALCDAPRVDRWYCQFVEG [TF108]
6.98
